# ASSAY INFO: E. coli DRC41 culture turbidity changes, primary screen, E. coli filamentation inducer project, strain DRC41, OD650, 48 h (AID 1152);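 note: E. coli MC1000 strain DRC41 lacking acrAB efflux pump and sulA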
# MEASUREMENT CONDITIONS: E. coli DRC41 (acrAB sulA), higher = more signal, called active from +8 up or from −8 down
The source made the active and inactive calls.
OUTCOME MEASURE: z-score

- MOLECULE: "CCOC(=O)C1=CC[C@@H](c2ccccc2C(F)(F)F)N(S(=O)(=O)c2ccc(C)cc2)C1"
  z-score: "-0.007 (inactive)"
- MOLECULE: "Cc1ccc(S[C@]2(C(=O)NCCN3CCOCC3)CC(=O)N(Cc3ccccc3C(F)(F)F)[C@@H]2c2ccc(CO)cc2I)cc1"
  z-score: "0.0143 (inactive)"
- MOLECULE: "CC(=O)n1cc(C(O)C2C=CC3C(=O)N(Cc4ccccc4)C(=O)C3N2n2cnnc2)c2ccccc21 (configuration not stated)"
  z-score: "-1.32 (inactive)"
- MOLECULE: "C=CCOC(=O)[C@@H]1[C@H]2C(=O)O[C@H](c3ccccc3)[C@H](c3ccccc3)N2[C@H](c2ccc(OCCOC(=O)[C@H]3C[C@H]4C(=O)N[C@@H](CCCCNC(C)=O)C(=O)N4[C@H]3c3cccc(OCCO)c3)cc2)[C@@]12C(=O)Nc1ccc(I)cc12"
  z-score: "-0.04 (inactive)"

QUERY: What does the record list as z-score for [N-]=[N+]=NCc1ccccc1C[C@@]1(C(N)=O)N=C(c2ccc(OCCCO)cc2)O[C@@H]1c1ccccc1CN=[N+]=[N-] ?
RESULT: 0.315 (inactive)

QUERY: Now this one: CCN(CC)c1ccc(N2CC=CC34O[C@@H]5/C=C\CCC(C)OC(=O)C5[C@H]3C(=O)N(CCO)[C@@H]4C2=O)cc1 (some centres not stated)
RESULT: -0.244 (inactive)

QUERY: Now this one: COc1cc2c(cc1OC)CN(C(=O)[C@H]1[C@@H]3C(=O)O[C@@H](c4ccccc4)[C@@H](c4ccccc4)N3[C@@H](c3ccc(OCCO)cc3)[C@]13C(=O)Nc1ccc(C#CCCO)cc13)CC2
RESULT: 0.0836 (inactive)

---

# ASSAY INFO: small-molecule microarray binders of probe aWnt5a, primary screen, biochemical, biotinylated probe, 635/667 nm fluorescence (AID 1113);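 note: score merges 667 nm fluorescence intensity with signal-to-noise per printed feature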
# MEASUREMENT CONDITIONS: higher = more signal
Known composite z-score of a selection of compounds

QUERY: What does the record list as composite z-score for Cc1ccc(C(C)CC(O)C2C=CC3C(=O)N(c4ccccc4)C(=O)C3N2Nc2ccc(C(C)C)cc2)o1 (configuration not stated) ?
RESULT: 0.14

QUERY: Now this one: CC(C)c1ccc(NN2C(C(O)c3ccco3)C=CC3C(=O)N(c4ccccc4)C(=O)C32)cc1 (configuration not stated)
RESULT: 0.0629

QUERY: Now this one: Cc1ccc(S[C@]2(C(=O)NCc3ccccc3)CC(=O)N(C(C)C)[C@@H]2c2ccc(CO)cc2I)cc1
RESULT: -0.243

QUERY: Now this one: C=CCN1C(=O)[C@@]2(O[C@@H](CCn3cc([C@H](O)c4ccccc4)nn3)[C@H]([Si](C)(C)c3ccc(OC)cc3)[C@H]2C)c2ccccc21
RESULT: 0.0973

---

# ASSAY INFO: CREB reporter modulators under forskolin, primary screen, cell-based, PC12, CRE-LacZ reporter, forskolin-stimulated (AID 1146);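 note: PC12 cells with 6xCRE LacZ reporter stimulated by forskolin 10 µM; beta-galactosidase reporter signal reflecting CREB driven transcription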
# MEASUREMENT CONDITIONS: luminescence, 4.5 h, higher = more signal, called active from +8 up or from −8 down
Class condition met: z-score at least 0.07. Class condition not met: z-score below 0.07.

Use the examples below as a reference point.
- STRUCTURE SMILES: "COC(=O)[C@@]1(Cc2ccc(OC)cc2)[C@H]2c3cc(C(=O)N4CCCC4)n(CCc4cc5ccccc5[nH]4)c3C[C@H]2CN1C(=O)c1ccccc1"
  DISCRETE LABEL: "condition met"
- STRUCTURE SMILES: "COc1cc2c(cc1OC)CN(C(=O)[C@@H]1[C@H]3C(=O)O[C@H](c4ccccc4)[C@H](c4ccccc4)N3[C@H](c3ccccc3OCCO)[C@@]13C(=O)Nc1ccc(C#CC4(O)CCCCCC4)cc13)CC2"
  DISCRETE LABEL: "condition not met"
- STRUCTURE SMILES: "CCCc1cccc(=O)o1"
  DISCRETE LABEL: "condition met"

QUERY: Kindly determine if z-score recorded for C=CCOC(=O)[C@@H]1[C@H]2C(=O)O[C@H](c3ccccc3)[C@H](c3ccccc3)N2[C@H](c2ccc(OCCOC(=O)[C@H]3C[C@H]4C(=O)N[C@@H](CCCC[N+](C)(C)C)C(=O)N4[C@H]3c3ccc(O)cc3)cc2)[C@@]12C(=O)Nc1ccc(I)cc12 is above or exactly 0.07.
RESULT: condition not met

QUERY: Now this one: CC(C)(C)OC(=O)CC[C@]1(C(=O)NCCN2CCOCC2)N=C(c2ccc(OCCCO)cc2)O[C@H]1c1ccccc1
RESULT: condition not met

---

# Tested on: PRMT1 (protein arginine N-methyltransferase 1)
# ASSAY INFO: PRMT1 binders on small-molecule microarrays, primary screen, biochemical, small-molecule microarray, 635 nm fluorescence (AID 1088);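 note: binding of Prmt1 protein to compounds spotted on small-molecule microarray slides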
# MEASUREMENT CONDITIONS: small-molecule microarray binding, higher = more signal
OUTCOME MEASURE: composite z-score
// return a plain number; no unit text

Take a look at these entries with their results.
- COMPOUND: "O=C1C2C=CC(C(O)c3cc(C(F)(F)F)cc(C(F)(F)F)c3)N(Nc3ccc([N+](=O)[O-])cc3)C2C(=O)N1c1ccccc1 (centres undefined)"
  MEASURED NUMBER: 1.54
- COMPOUND: "CN(C)C(=O)[C@]1(CCC(=O)OC(C)(C)C)N=C(c2ccc(OCCCO)cc2)O[C@@H]1c1ccccc1"
  MEASURED NUMBER: 0.637
- COMPOUND: "O=C1OCC=C[C@H]2OC34C=CCN(c5ccc(Cl)cc5)C(=O)[C@H]3N(CCCCCO)C(=O)[C@@H]4[C@@H]12 (some centres undefined)"
  MEASURED NUMBER: -0.449

Now look at this entry.
QUERY: What does the record list as composite z-score for COc1ccc([Si](C)(C)[C@@H]2[C@@H](CCO)O[C@]3(C(=O)N(Cc4cccc(N5C(=O)c6ccccc6Oc6ccccc65)c4)c4ccccc43)[C@H]2C)cc1 ?
RESULT: 1.17

---

# ASSAY INFO: binders from COS7 lysate, DM2A8 probe, primary screen, torsin A project, cell lysate, small-molecule microarray, fluorescence 635/667 (AID 1065)
# MEASUREMENT CONDITIONS: higher = more signal, COS7 lysate expressing mutant human TOR1A
Known composite z-score of a selection of compounds

- COMPOUND: "O=C1O[C@H](c2ccccc2)[C@H](c2ccccc2)N2[C@H]1[C@@H](C(=O)O)[C@]1(C(=O)Nc3ccccc31)[C@H]2c1ccc(O)cc1"
  OUTCOME MEASURE: "composite z-score"
  RESULT: -0.122

QUERY: What does the record list as composite z-score for C=CC[C@]1(C(=O)N(C)C)N=C(c2ccc(OCCCO)cc2)O[C@H]1c1ccccc1N=[N+]=[N-] ?
RESULT: -0.113

QUERY: Now this one: O=C1O[C@@H](c2ccccc2)[C@@H](c2ccccc2)N2[C@@H](c3ccc(O)cc3)[C@]3(C(=O)Nc4ccccc43)[C@@H](C(=O)Nc3nc4ccccc4s3)[C@H]12
RESULT: 0.155

QUERY: Now this one: O=C1OCC=C[C@H]2OC34C=CCN(c5ccc(Cl)cc5)C(=O)[C@H]3N(CCCCCO)C(=O)[C@@H]4[C@@H]12 (stereo partly drawn)
RESULT: 1.77

QUERY: Now this one: CCOC(=O)C[C@H]1[C@H](OC(=O)c2ccc(C(=O)c3ccccc3)cc2)[C@@H](NC(=O)c2ccc3ccccc3c2)c2cc(OCCCO)ccc2N1C(=O)c1ccccc1
RESULT: 0.443

QUERY: Now this one: CCOC(=O)[C@H]1C/C=C/C[C@H](C(=O)OCC)C(=O)O[C@H]2[C@@H](OC)O[C@H](CO)[C@@H](OC(=O)CCc3ccccc3)[C@@H]2OC1=O
RESULT: -0.267

---

# ASSAY INFO: FRG1 promoter luciferase signal modulators, primary screen, FRG1 inhibition for FSHD, cell-based, C2C12 myotubes, firefly/Renilla luciferase, luminescence (AID 1084)
# MEASUREMENT CONDITIONS: higher = more signal, called active from +8 up or from −8 down
OUTCOME MEASURE: z-score
// return a plain number; no unit text

Take a look at these entries with their results.
- COMPOUND: "C=C(/C=C/CNS(=O)(=O)c1ccc(C)cc1)[C@H](O)[C@H]1CCCN1S(=O)(=O)c1ccccc1[N+](=O)[O-]"
  MEASURED NUMBER: -4.12
- COMPOUND: "C=C1C2CC3C(=C4C(CO[C@@H]4[C@H]4CCCN4S(=O)(=O)c4ccccc4[N+](=O)[O-])C4C(=O)N(C)C(=O)C34)CC2C(=O)N1C (some centres undefined)"
  MEASURED NUMBER: 0.581

QUERY: What does the record list as z-score for C=CC[C@H](OC(=O)Nc1ccc(OC)cc1)c1ccc(O)c2ccccc12 ?
RESULT: 6.36

QUERY: Now this one: C#CCNC(=O)[C@H](Cc1ccccc1)NC(=O)[C@@H](N=[N+]=[N-])C(C)C
RESULT: 0.171
